- Tested on: Trichoderma virens ATCC 9645
- protocol description: growth yield (OD600) relative to untreated control; higher = less growth inhibition
- settings: compound concentration: 100 uM; 40 h
Where a name gives a salt, the structure may show the parent alone. The campaign covered roughly 1,300 compounds. About 75 (6%) showed an effect of 50% or more. This excerpt belongs to a sample that is enriched for strong results.
measured parameter: growth yield (%)
# unit: % | format: bare number

So what's the measured growth yield for this one? CN1[C@@H]2CC[C@H]1C[C@@H](OC(=O)c1c[nH]c3ccccc13)C2 [Tropisetron hydrochloride]
104

Consider next the compound CC1CC(OC(=O)c2ccccc2O)CC(C)(C)C1 (configuration not stated) [Homosalate] in the same way.
109

Now give it for COc1cc(C)nc(-n2nc(C)cc2OC)n1 [Epirizole] too.
111

And for `C=C(NC(=O)C(=C)NC(=O)c1csc(C2=N[C@@H]3c4csc(n4)[C@H]4NC(=O)c5csc(n5)[C@H]([C@](C)(O)[C@@H](C)O)NC(=O)[C@H]5CSC(=N5)/C(=C/C)NC(=O)[C@H]([C@@H](C)O)NC(=O)c5csc(n5)[C@]3(CC2)NC(=O)[C@H](C)NC(=O)C(=C)NC(=O)[C@H](C)NC(=O)[C@H]([C@@H](C)CC)N[C@@H]2C=Cc3c([C@H](C)O)cc(nc3[C@H]2O)C(=O)O[C@@H]4C)n1)C(N)=O` ?
96.6

Likewise for CC(C)(CO)C(O)C(=O)NCCCO (configuration not stated) ?
100

`C[C@@H](O)[C@H]1C(=O)N2C(C(=O)O)=C(SCCNC=N)C[C@H]12` ?
103

Follow-up item: `CCN(CC)CCNc1ccc(CO)c2sc3ccccc3c(=O)c12`
118

---

- Test system: Trichoderma virens ATCC 9645
- protocol description: growth yield (OD600) relative to untreated control; higher = less growth inhibition
- settings: compound concentration: 100 uM; 72 h
Counter-ions that a name gives are not always drawn. The campaign covered roughly 1,300 compounds. About 75 (6%) showed an effect of 50% or more. This excerpt belongs to a sample that is enriched for strong results.
measured parameter: growth yield
Field note: include the unit after the figure.

# lookup: growth yield of C[C@@H]1C[C@H]2[C@@H]3C[C@H](F)C4=CC(=O)C=C[C@]4(C)[C@@]3(F)[C@@H](O)C[C@]2(C)[C@@]1(O)C(=O)COC(=O)C(C)(C)C [Flumethasone pivalate]
104%

Same question, CCCCNc1ccc(C(=O)OCCOCCOCCOCCOCCOCCOCCOCCOCCOC)cc1 [Benzonatate] this time
89.1%

// next record `CCCCNc1ccc(C(=O)OCCN(C)C)cc1`
102%

Consider next the molecule CC(Cc1cccc(C(F)(F)F)c1)NCCOC(=O)c1ccccc1 (stereo not given) [Benfluorex] in the same way.
95.9%

How about this molecule: NCCNCCNCCNCCN [Tetraethylenepentamine pentahydrochloride]
99.8%

Please answer likewise for CCOC(=O)N1CCC(=C2c3ccc(Cl)cc3CCc3cccnc32)CC1 [Loratadine]
73.6%

Try this molecule too: CO[C@@H]1[C@@H](OC(N)=O)[C@@H](O)[C@H](Oc2ccc3c(O)c(NC(=O)c4ccc(O)c(CC=C(C)C)c4)c(=O)oc3c2C)OC1(C)C [Novobiocin sodium salt]
115%

// same read-out, input: OCC(O)CN1CCN(c2ccccc2)CC1 (racemic) [Dropropizine (R,S)]
102%

Try this molecule too: CCCCNc1c(C(=O)OCC)c(C)nc2c1cnn2CC [Tracazolate hydrochloride]
60.5%

Request: CC[C@H](C)C(=O)O[C@H]1CCC=C2C=C[C@H](C)[C@H](CC[C@@H]3C[C@@H](O)CC(=O)O3)[C@H]21 [Mevastatin]
96.2%

Similarly, CN1CCC(=C2c3ccccc3CCc3cccnc32)CC1 [Azatadine maleate] ?
104%

Another molecule to check: COc1ccc(-c2ccc3cc(C(=O)O)ccc3c2)cc1C12CC3CC(CC(C3)C1)C2 [Adapalene]
107%

What do you have for CCC(=O)O[C@@H](O[P@](=O)(CCCCc1ccccc1)CC(=O)N1C[C@H](C2CCCCC2)C[C@H]1C(=O)O)C(C)C [Fosinopril] ?
103%

Try this molecule next: C=C1C[C@H]2[C@@H]3C=C(C)C4=CC(=O)CC[C@]4(C)[C@H]3CC[C@]2(C)[C@@]1(OC(C)=O)C(C)=O [Melengestrol acetate]
94.5%

Proceed to CCOC(=O)O[C@]1(C(=O)COC(=O)CC)CC[C@H]2[C@@H]3CCC4=CC(=O)C=C[C@]4(C)[C@H]3[C@@H](O)C[C@@]21C [Prednicarbate]
114%

---

- Test system: Trichoderma virens ATCC 9645
- protocol description: growth yield (OD600) relative to untreated control; higher = less growth inhibition
- settings: compound concentration: 100 uM; 72 h
Structures can show the parent of a compound that is named as a salt. Hit rate of the full screen: of about 1,300 compounds, about 75 (6%) showed an effect of 50% or more. This is one part of a sample in which strong results are shown more often than they occur.
Exercise: for every item that follows, state its recorded growth yield.
Respond numerically; units are % and should not be typed.

Return growth yield measured with Trichoderma virens ATCC 9645 given this compound: CC(C)NC[C@H](O)COc1ccc(CC(N)=O)cc1 [(S)-(-)-Atenolol]
101

Next compound: COc1c(O[C@@H]2O[C@H](CO)[C@@H](O)[C@H](O)[C@H]2O)cc2c(c1OC)-c1ccc(SC)c(=O)cc1[C@@H](NC(C)=O)CC2 [Thiocolchicoside]
103

Query CCCCC[C@H](O)/C=C/[C@H]1[C@H](O)CC(=O)[C@@H]1CCCCCCC(=O)O [Alprostadil] next
101

Would you mind doing C[N+](C)(CCOc1ccccc1)Cc1ccccc1.O=C([O-])c1cc2ccccc2cc1O [Bephenium hydroxynaphthoate] as well?
79.6

What do you get for CO[C@H]1/C=C/O[C@@]2(C)Oc3c(C)c(O)c4c(O)c(c(/C=N/N5CCN(C6CCCC6)CC5)c(O)c4c3C2=O)NC(=O)/C(C)=C\C=C\[C@H](C)[C@H](O)[C@@H](C)[C@@H](O)[C@@H](C)[C@H](OC(C)=O)[C@@H]1C [Rifapentine] ?
94

Would you mind doing CC(COc1ccccc1)N(CCCl)Cc1ccccc1 (stereo unspecified) [Phenoxybenzamine hydrochloride] as well?
103

---

Would you kindly list growth yield for each of these molecules?
- Tested on: Trichoderma virens ATCC 9645
- protocol description: growth yield (OD600) relative to untreated control; higher = less growth inhibition
- settings: compound concentration: 100 uM; 72 h
Structures can show the parent of a compound that is named as a salt. Hit rate of the full screen: of about 1,300 compounds, about 75 (6%) showed an effect of 50% or more. The full list was thinned out, with strong results kept by preference.
Enter your answer as a number in %; do not include the unit.

Please look up its growth yield: `Cc1nnc(NS(=O)(=O)c2ccc(N)cc2)s1`
99.7

Field entry: `CCOCCn1c(N2CCCN(C)CC2)nc2ccccc21`
96.9

Try this molecule next: COc1cc(N)c(Cl)cc1C(=O)NC1CCN(CCCOc2ccc(F)cc2)CC1OC (stereo not given) [Cisapride]
109

Follow-up item: CN1CC2c3ccccc3Oc3ccc(Cl)cc3C2C1 (stereo not given) [Asenapine maleate]
106

Here is the next molecule: `CC(C)CC(=O)N[C@H](C(=O)N[C@H](C(=O)N[C@@H](CC(C)C)[C@@H](O)CC(=O)N[C@@H](C)C(=O)N[C@@H](CC(C)C)[C@@H](O)CC(=O)O)C(C)C)C(C)C`
102

---

- System: Trichoderma virens ATCC 9645
- protocol description: growth yield (OD600) relative to untreated control; higher = less growth inhibition
- settings: compound concentration: 100 uM; 40 h
Counter-ions that a name gives are not always drawn. In all, about 1,300 compounds went through this assay and about 75 (6%) showed an effect of 50% or more. Shown is part of a subset that was picked to be rich in strong results.
Consider the following compounds; for each one, report its growth yield.
Reply with just the number (in %).

For Trichoderma virens ATCC 9645, provide growth yield of Cc1cc(N)c2ccccc2[n+]1CCCCCCCCCC[n+]1c(C)cc(N)c2ccccc21 [Dequalinium dichloride] please.
2.54

Try CC(=O)N[C@@H](CC(C)C)C(=O)O [N-Acetyl-L-leucine] next.
103

Follow-up item: C#C[C@]1(OC(C)=O)CC[C@H]2[C@@H]3CCC4=CC(=NO)CC[C@@H]4[C@H]3CC[C@@]21CC (mixture of isomers) [Norgestimate]
117

Would you kindly repeat that for Cc1c(N(C)CS(=O)(=O)O)c(=O)n(-c2ccccc2)n1C [Dipyrone] ?
91.7

And the next one, Clc1ccc(COC(Cn2ccnc2)c2ccc(Cl)cc2Cl)cc1 (centres undefined) [Econazole nitrate] ?
2.22

Lookup CCC(=O)O[C@@H](O[P@](=O)(CCCCc1ccccc1)CC(=O)N1C[C@H](C2CCCCC2)C[C@H]1C(=O)O)C(C)C [Fosinopril]
110

Also, CCC(=O)OCC(=O)[C@@]1(OC(=O)CC)[C@@H](C)C[C@H]2[C@@H]3CCC4=CC(=O)C=C[C@]4(C)[C@@]3(Cl)[C@@H](O)C[C@@]21C [Beclomethasone dipropionate] please.
103

OCCN1CCN(CC/C=C2/c3ccccc3Sc3ccc(Cl)cc32)CC1 [Zuclopenthixol dihydrochloride] ?
15.1

Check CC[C@H]1OC(=O)[C@H](C)[C@@H](O[C@H]2C[C@@](C)(OC)[C@@H](O)[C@H](C)O2)[C@H](C)[C@@H](O[C@@H]2O[C@H](C)C[C@H](N(C)C)[C@H]2O)[C@](C)(O)C[C@@H](C)/C(=N\OCOCCOC)[C@H](C)[C@@H](O)[C@]1(C)O [Roxithromycin] too.
97.8

Moving on to the next compound: CCCC(=O)Nc1ncnc2c1ncn2[C@@H]1O[C@@H]2COP(=O)(O)O[C@H]2[C@H]1OC(=O)CCC [Bucladesine sodium salt]
97.7

Also CN(C)CCCO[C@@H]1[C@H]2OC(C)(C)O[C@H]2O[C@@H]1[C@H](O)CO [Amiprilose hydrochloride] , if possible.
101

Now consider Clc1ccc(C(Cn2ccnc2)OCc2csc3c(Cl)cccc23)c(Cl)c1 (centres undefined) [Sertaconazole nitrate] and answer again.
3.81

# iterate: Clc1ccc(C(Cn2ccnc2)OCc2ccsc2Cl)c(Cl)c1 (centres undefined) [Tioconazole]
2.22

Input O=C(Cn1ccnc1[N+](=O)[O-])NCCO [Etanidazole]
101

Cited source: the supplement of paper PMC8007513
